Target: pY641-STAT6 in PBMC (Homo sapiens, UniProt P42226)
Construct: Cryopreserved Peripheral Blood Mononuclear Cells (PBMC) are from AllCells; host or cells: cryopreserved PBMC
Sequence (P42226 whole entry): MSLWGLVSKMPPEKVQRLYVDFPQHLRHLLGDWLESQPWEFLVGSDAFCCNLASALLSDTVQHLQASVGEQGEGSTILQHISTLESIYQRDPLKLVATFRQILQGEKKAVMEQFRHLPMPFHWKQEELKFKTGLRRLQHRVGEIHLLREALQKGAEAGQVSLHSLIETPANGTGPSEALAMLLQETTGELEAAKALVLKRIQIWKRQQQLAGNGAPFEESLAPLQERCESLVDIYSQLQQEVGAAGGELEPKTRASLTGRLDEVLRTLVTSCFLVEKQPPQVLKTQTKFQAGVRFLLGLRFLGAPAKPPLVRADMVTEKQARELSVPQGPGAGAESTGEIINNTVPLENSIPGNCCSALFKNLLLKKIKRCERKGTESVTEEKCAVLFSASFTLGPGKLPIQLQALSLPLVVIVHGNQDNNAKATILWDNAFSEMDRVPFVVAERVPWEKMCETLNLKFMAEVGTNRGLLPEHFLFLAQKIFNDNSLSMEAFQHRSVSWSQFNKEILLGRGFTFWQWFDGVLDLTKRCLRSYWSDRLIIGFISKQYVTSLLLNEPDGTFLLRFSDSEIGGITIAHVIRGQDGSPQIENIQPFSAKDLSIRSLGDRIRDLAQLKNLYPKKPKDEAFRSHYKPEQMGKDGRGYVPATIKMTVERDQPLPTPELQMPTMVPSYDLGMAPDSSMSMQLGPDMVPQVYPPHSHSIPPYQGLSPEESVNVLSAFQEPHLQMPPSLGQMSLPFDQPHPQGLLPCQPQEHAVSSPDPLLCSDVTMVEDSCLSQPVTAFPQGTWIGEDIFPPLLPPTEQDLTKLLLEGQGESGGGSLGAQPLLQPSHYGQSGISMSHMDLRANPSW
Assay: MSD-pSTAT-PBMC Assay (pSTAT6, IL-4 stimulated)
Format: cell-based
Settings: PBMC, compound 3 hrs, then 1 ng/mL IL-4 for 10 min; Table 1114; read-out: pSTAT6
measured.property: IC50

*Q* Tell us which IC50 value is on record for CC(C)(C)C(=O)OCOP(=O)(OCOC(=O)C(C)(C)C)C(F)(F)c1ccc2sc(C(=O)N[C@@]3(C)CCCCC4CC[C@@H](C(=O)N5C[C@H](c6ccccc6)[C@@H](C#N)C5)N4C3=O)cc2c1 (relative stereo)
*A* 0.1 to 1 µM

*Q* Tell us which IC50 value is on record for CC(C)(C)C(=O)OCOP(=O)(OCOC(=O)C(C)(C)C)[C@@H](F)c1ccc2sc(C(=O)N[C@H]3CCCC[C@H]4CC[C@@H](C(=O)N5C[C@@H](C#N)[C@H](c6ccccc6)C5)N4C3=O)cc2c1 (single isomer, unassigned)
*A* < 0.1 µM

Data provenance: patent US20250215029A1
